experiment: Human HepG2 cell viability assay in 384 well format; type: toxicity, cell-based; design: dose 125 nL, time 70.5 hour; concentration not given beside the values; conditions: HepG2 cells, read-out: Inhibition
Each item that follows carries a reported cytotoxicity at 70.5 h.
I only need the number, in %, no unit after it.

Below: 3 molecules and their reported cytotoxicity at 70.5 h.
1. COCCC1(CNC(=O)Nc2ccc(-n3ccnn3)cc2)CCC1 : 4.76
2. COc1ccccc1CC1CCCN(C(=O)c2n[nH]c3c2CCC3)C1 (stereo unspecified) : -3.07
3. Cn1cc(-c2cnc(N3CCCC3)nc2)cc1C(=O)O : 1.36

Please find the next molecule below.
# lookup: cytotoxicity at 70.5 h of Cc1nnc(CN2CCN(CC(O)c3cccc(F)c3)CC2)n1C (stereo unspecified)
-15.6

* * *

assay: Human HepG2 cell viability assay in 384 well format; assay type: toxicity, cell-based; set-up: dose 125 nL, time 70.5 hour; concentration not given beside the values; conditions: HepG2 cells, read-out: Inhibition
Each item that follows carries a reported cytotoxicity at 70.5 h.
I only need the number, in %, no unit after it.

Below: 8 compounds and their reported cytotoxicity at 70.5 h.
1) Cc1noc([C@@H]2C[C@H]3OCC[C@H]3N(Cc3cc(C)c(C)o3)C2)n1 : -6.09
2) CC(C)OC(=O)CN1N=C(C(=O)N2CCCC2)S(=O)(=O)c2ccccc21 : 1.63
3) O=C(O)Cn1nc(C2CC2)c2c(-c3ccc(F)cc3)ccnc21 : -10.6
4) O=C1[C@@H]2CCN(Cc3ccccn3)C[C@@H]2OCCN1c1ccccc1 : -4.44
5) CCN1CCN(C)C(=O)C12CCN(Cc1cccc(C)c1)CC2 : 2.19
6) Cc1cc(C2CCCN2Cc2nnc(-c3ccco3)o2)on1 (centres undefined) : -8.06
7) O=C(c1coc(COc2ccccc2F)n1)N1CCC[C@H]1CO : -2.42
8) CN(C)C(=O)CN1CCOCC2(CCN(CC3CCOC3)CC2)C1 (centres undefined) : 15.1

# lookup: cytotoxicity at 70.5 h of CCc1ccc(C2COCCN2C(=O)Nc2ccc(C#N)cc2)o1 (centres undefined)
47.1

# lookup: cytotoxicity at 70.5 h of CNC(=O)N1CCN(C(=O)C(C)C)CC2(CC(=O)N(C)C2)C1 (centres undefined)
-5.77

# lookup: cytotoxicity at 70.5 h of `O=C(O)c1nnn(Cc2cccc(C(F)(F)F)c2)c1-c1ccncc1`
-8.89

# lookup: cytotoxicity at 70.5 h of `O=C1[C@H]2CC[C@H](CN(c3ncnc4ccsc34)C2)N1CC1CC1`
-11

# lookup: cytotoxicity at 70.5 h of `COc1ccc(NC(=O)c2ccc[nH]2)c(N2CCN(C(C)=O)CC2)n1`
-0.755

# lookup: cytotoxicity at 70.5 h of `Cc1ncsc1C(=O)NCc1ccc(-c2n[nH]cc2C(=O)N(C)C)cc1`
-1.47

# lookup: cytotoxicity at 70.5 h of `COCCCNS(=O)(=O)c1cc(C)sc1C`
-6.05

# lookup: cytotoxicity at 70.5 h of CCNC(=O)NC1CCC(Oc2ccccc2C#N)CC1 (centres undefined)
9.88

* * *

Each item that follows carries a reported cytotoxicity at 70.5 h.
test: Human HepG2 cell viability assay in 384 well format; type: toxicity, cell-based; parameters: dose 125 nL, time 70.5 hour; concentration not given beside the values; details: HepG2 cells, read-out: Inhibition
I only need the number, in %, no unit after it.

Below: 3 molecules and their reported cytotoxicity at 70.5 h.
1. Cc1cc(C(F)(F)F)nc(CCNc2nc(C)nc3c2cnn3C)n1 : -4.44
2. O=C(CCSc1ccccc1F)N1CCN(c2cnccn2)CC1 : 11
3. Cc1cc(C)n(C2CCCN(C(=O)c3cccc(F)c3F)C2)n1 (stereo not given) : 38.7

# lookup: cytotoxicity at 70.5 h of O=C(NC1CCC(O)CC1)c1cnc2c(cnn2C2CCCC2)c1 (stereo not given)
-0.508

# lookup: cytotoxicity at 70.5 h of `C[C@@H]1CN(Cc2ccc(C(F)(F)F)cc2F)CC[C@]1(C)O`
26.4

src = ChEMBL document CHEMBL3507680
